# Tested on: TRAMP-C2 cell line
# Assay type: cell-based
# test_parameters: 24 hours incubation, XTT; read-out: Cancer LC50 Mouse prostate cancer TRAMP-C2
Non-standard residues stand in square brackets, D forms with d. Residues, ends and D or L forms follow the SMILES beside them. *: point of attachment. Lauroyl = CCCCCCCCCCCC(=O)*; 12Ado = NCCCCCCCCCCCC(=O)O
Property: CC50; scope: individual compounds

Observe how each entry below is paired with its result.
[
  {
    "compound": "NCCCC[C@H](NC(=O)CCCCCCCCCCCNC(=O)[C@H](CCCCN)NC(=O)[C@H](CCCCN)NC(=O)CCCCCCCCCCCNC(=O)[C@@H](N)CCCCN)C(N)=O [(KNC12K)2NH2] (HELM PEPTIDE1{K.[O=C(CCCCCCCCCCCN[*:1])[*:2]].K.K.[O=C(CCCCCCCCCCCN[*:1])[*:2]].K.[am]}$$$$V2.0)",
    "experimental_system": "TRAMP-C2 cell line",
    "value_observed": "> 16 µM"
  },
  {
    "compound": "NCCCC[C@H](NC(=O)CCCCCCCCCCCNC(=O)[C@H](CCCCN)NC(=O)[C@H](CCCCN)NC(=O)CCCCCCCCCCCNC(=O)[C@H](CCCCN)NC(=O)[C@H](CCCCN)NC(=O)CCCCCCCCCCCNC(=O)[C@@H](N)CCCCN)C(N)=O [(KNC12K)3NH2] (H-K[12Ado]KK[12Ado]KK[12Ado]K-NH2)",
    "experimental_system": "TRAMP-C2 cell line",
    "value_observed": "> 16 µM"
  },
  {
    "compound": "NCCCCCCCCCCCC(=O)N[C@@H](CCCCN)C(=O)N[C@@H](CCCCN)C(=O)NCCCCCCCCCCCC(=O)N[C@@H](CCCCN)C(N)=O [NC12KKNC12KNH2] (HELM PEPTIDE1{[NCCCCCCCCCCCC(=O)[*:2]].K.K.[O=C(CCCCCCCCCCCN[*:1])[*:2]].K.[am]}$$$$V2.0)",
    "experimental_system": "TRAMP-C2 cell line",
    "value_observed": "> 16 µM"
  },
  {
    "compound": "CCCCCCCCCCCC(=O)N[C@@H](CCCCN)C(=O)NCCCCCCCCCCCC(=O)N[C@@H](CCCCN)C(=O)N[C@@H](CCCCN)C(=O)NCCCCCCCCCCCC(=O)N[C@@H](CCCCN)C(N)=O [C12(KNC12K)2NH2] (Lauroyl-K[12Ado]KK[12Ado]K-NH2)",
    "experimental_system": "TRAMP-C2 cell line",
    "value_observed": "> 16 µM"
  }
]

Field: CC50 (TRAMP-C2 cell line). Entry: CCCCCCCCCCCC(=O)N[C@@H](CCCCN)C(=O)N[C@@H](CCCCN)C(=O)NCCCCCCCCCCCC(=O)N[C@@H](CCCCN)C(=O)N[C@@H](CCCCN)C(=O)NCCCCCCCCCCCC(=O)N[C@@H](CCCCN)C(=O)N[C@@H](CCCCN)C(=O)NCCCCCCCCCCCC(=O)N[C@@H](CCCCN)C(N)=O (Lauroyl-KK[12Ado]KK[12Ado]KK[12Ado]K-NH2)
> 16 µM

Record CCCCCCCCCCCC(=O)N[C@@H](CCCCN)C(=O)NCCCCCCCCCCCC(=O)N[C@@H](CCCCN)C(=O)N[C@@H](CCCCN)C(=O)NCCCCCCCCCCCC(=O)N[C@@H](CCCCN)C(=O)N[C@@H](CCCCN)C(=O)NCCCCCCCCCCCC(=O)N[C@@H](CCCCN)C(N)=O (Lauroyl-K[12Ado]KK[12Ado]KK[12Ado]K-NH2) : what is its CC50 with TRAMP-C2 cell line?
10 µM

Hi! What's the reported CC50 for NCCCCCCCCCCCC(=O)N[C@@H](CCCCN)C(=O)NCCCCCCCCCCCC(=O)N[C@@H](CCCCN)C(=O)N[C@@H](CCCCN)C(=O)NCCCCCCCCCCCC(=O)N[C@@H](CCCCN)C(=O)N[C@@H](CCCCN)C(=O)NCCCCCCCCCCCC(=O)N[C@@H](CCCCN)C(N)=O [NC12(KNC12K)3NH2] (H-[12Ado]K[12Ado]KK[12Ado]KK[12Ado]K-NH2) on TRAMP-C2 cell line?
> 16 µM

API: value(readout=CC50, system=TRAMP-C2 cell line) for record NCCCCCCCCCCCC(=O)N[C@@H](CCCCN)C(=O)N[C@@H](CCCCN)C(=O)NCCCCCCCCCCCC(=O)N[C@@H](CCCCN)C(=O)N[C@@H](CCCCN)C(=O)NCCCCCCCCCCCC(=O)N[C@@H](CCCCN)C(=O)N[C@@H](CCCCN)C(=O)NCCCCCCCCCCCC(=O)N[C@@H](CCCCN)C(N)=O (H-[12Ado]KK[12Ado]KK[12Ado]KK[12Ado]K-NH2)
15 µM
